- measurement_protocol: Blood plasma kinetics in rats
- Type: in vivo
- condition_description: rat, read-out: elimination half life time in plasma (converted)
property_name: half-life (h)

{"compound": "C[N+](C)(C)CCOP(=O)([O-])OCCCCCCCCCCCCc1cccc(I)c1 [NM-324, 12-(3-iodophenyl)-dodecylphosphocholine]", "property_name": "half-life", "value_reported": 2.43}

====

- measurement_protocol: Blood plasma kinetics in rats
- Assay type: in vivo
- condition_description: rat, read-out: distribution phase half life (converted)

{"chemical_structure": "C[N+](C)(C)CCOP(=O)([O-])OCCCCCCCCCCCCCCCCCCc1ccc(I)cc1", "half-life (h)": 4.86}
